B1: tRNA (parent)
chain: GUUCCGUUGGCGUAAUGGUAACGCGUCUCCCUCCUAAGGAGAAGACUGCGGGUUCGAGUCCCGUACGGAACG

variants of: B1; assay: yeast fitness relative to wild type (ratio to wild type); higher = fitter; tRNA-Arg(CCU), competitive growth, 37 C, YPD
This sample holds only a part of the variants without activity.
Could you please report measured yeast fitness for the items listed next?
Write the number on its own, no unit after it.

get_value(item= `GUUCCGUUGGCGUAAUGGUGACGCGUCUCCCUCCUAAGGAGAAGACUGCGGGUUUGAGUCCCGUACGGAACG` , readout=yeast fitness) returns 0.82

get_value(item= `GUUCCGUAGGCGUAAUGGUAACGCGUCUCCCUCCCAAGGAGCAGACUGCGGGUUCGAGUCCCGUACAGAACG` , readout=yeast fitness) returns 0.568

get_value(item= `GUUGCGUUGGCGUAAUGGUAACGCGUCUCGCUCCUAAGGAGAAGACUGCGGGUUCGAGUCCCGUACGGAACG` , readout=yeast fitness) returns 0.713

get_value(item= `GUUCCGUUGGCGUAAUGGUUACGCGUCUCCCUUCUAAGGAGAAGACUGCGGGUUCGAGUCCCGUACGGAACG` , readout=yeast fitness) returns 0.675

get_value(item= `GUUCCGUUGGCGUUAUGGUAACGCGUCUCCCUCCUAAGGUGAAGACUGCGGGUACGAGUCCCGUACGGAGCG` , readout=yeast fitness) returns 0.568

get_value(item= `GUUCCGUUGGCGUAAUGGUAACGCGUCUCCCUCCUAAGGAGAAGACUGCAGGUUCGAGUCCCAUACGGAACG` , readout=yeast fitness) returns 0.943

get_value(item= `GUUCCGUUGGCGUAAUGGUAACGCGCCUCCCUCCUAAGGAGAAGACUGCGGGUUCGAGUGCCGUACGGAACG` , readout=yeast fitness) returns 0.642

get_value(item= `GUUCCGUUGGCGUAAUGGUAACGCGUCUCCCUCCUAAGGAGAAGACCGCGGGUUCGAGUUCCGUACGGAACG` , readout=yeast fitness) returns 0.722

get_value(item= `GUUCCGUUGGCGUAAUGGUAACGCGUCUCCCUCCUAAGGCGAAGACCGCGGGUUCGAGUCCCGUACGGAACG` , readout=yeast fitness) returns 0.904

get_value(item= `GUUCCCUUGGCGUAAUGGUAACGCGUCUCCCUGUUAAGGAGAAGACUGCGGGUUCGAGUCCCGAACGGAACG` , readout=yeast fitness) returns 0.684
